Data provenance: PubChem BioAssay (NCI)

- Test system: A549 NSCLC
- ASSAY_DETAILS: NCI tumour cell line growth inhibition, 48 h
MEASUREMENT_LABEL: TGI

O=C1c2ccccc2C(=O)c2c1ccc1c2OCO1 : > 100 µM
C[C@]12CCC(=O)C=C1CC[C@@H]1C2CC[C@]2(C)Nc3c(ncn3-c3ccc(F)cc3)CC12 (stereo not given in full) : > 100 µM
Cc1cc2c(cc1C)[n+](=O)c(C(=O)/C=C/c1ccccc1Cl)c(C)n2[O-] : > 100 µM
Nc1nc2c(c3cnccc13)C(c1cccc(Cl)c1)Cc1cnccc1-2 (stereo not given) : 10.6 µM

Let us examine a further case.
*Q* Please state recorded TGI (tested on A549 NSCLC) of COc1cc(OC)nc(Nc2c(C#N)c3nc4ccccc4n3c3ccccc23)n1
*A* > 100 µM

====

Please go through the items and note down their TGI.
- Tested on: MOLT-4 leukemia
- ASSAY_DETAILS: NCI tumour cell line growth inhibition, 48 h

Consider the following items and state reported TGI for each.
1. CCN(CC)CC(O)C1CCC(c2ccccc2)CC1 (stereo not given)
2. CP(C)(=S)P(C)(C)=S
3. COc1ccc(/C(C)=N/NC(N)=S)c(OC)c1
4. CC(O[Si](C)(C)C)C1C=CC(C)n2c(=O)n(-c3ccccc3)c(=O)n21 (stereo not given)

*A*
["> 100 µM", "> 100 µM", "> 100 µM", "> 100 µM"]

Consider the following items and state reported TGI for each.
1. CC[C@]12C=CCN3CCC4(c5cc([C@@]6(C(=O)OC)CC7CN(CCc8c6[nH]c6ccccc86)C[C@@H]6CCC[C@H]76)c(OC)cc5N(C)C4[C@](O)(C(=O)OC)C1OC(C)=O)C32 (stereo not given in full)
2. CCOC1SC(SC)=NN1C(=O)C(OC(C)=O)C(OC(C)=O)C(OC(C)=O)C(OC(C)=O)C(=O)N1N=C(SC)SC1OCC (stereo not given)
3. CC1=C2C(O)C(C(C)C(=O)NC(C)C)CCC2(C)C=CC1=O (stereo not given)
4. COC(=O)NN1C(=O)C(=P(c2ccccc2)(c2ccccc2)c2ccccc2)C(C(=O)OC)=C1C

*A*
6.02 µM
> 100 µM
> 100 µM
> 100 µM

====

- Tested on: U251 CNS
- ASSAY_DETAILS: NCI tumour cell line growth inhibition, 48 h
MEASUREMENT_LABEL: TGI

# annotated cases, reported TGI shown
O=C1C[C@H]2[C@H](c3ccc(Br)cc3)[C@H]3C(=O)c4ccccc4NC(=O)[C@@H]3[C@@]2(O)c2ccccc2N1 : > 100 µM
CCNc1ncnc2n[nH]nc12 : > 100 µM
CC([O-])C(=O)[O-].NCC1CCC1CN.[Pt+4] (stereo not given) : > 10 µM

Consider the following items and state reported TGI for each.
1. N#CC(c1cc(Cl)ncn1)c1nc2ccccc2s1 (stereo not given)
2. COc1cc(-c2cc(CCC(=O)Nc3ccccc3[N+](=O)[O-])n(-c3ccc([N+](=O)[O-])cc3[N+](=O)[O-])n2)ccc1O

*A*
18.2 µM
> 100 µM

====

- Tested on: RPMI-8226 leukemia
- ASSAY_DETAILS: NCI tumour cell line growth inhibition, 48 h; in the data active = GI50 below about 0.43 µM; inactive = the rest
Give your call using only these classes: 1 for active, 0 for inactive

These recorded examples may help you get a feel for the data.
Cc1ccc(NC(=O)c2nc(S(C)=O)oc2-c2ccc(F)cc2)cc1Nc1nccc(-c2cccnc2)n1 (centres undefined) : 0
O=C(CCl)Nc1ccc2c(c1)C(=O)c1ccc(NC(=O)CCl)cc1C2=O : 0
CC([O-])C(=O)[O-].NCC1CCC1CN.[Pt+4] (centres undefined) : 0
CC(C)[C@@H]1CC[C@@H]2[C@@H]1[C@H](OC(=O)/C=C/c1ccccc1)[C@]1(C(C)C)C[C@@H](OC(=O)CO)[C@@]2(C)O1 : 0
C[C@@]1(N2C(=O)OC[C@@H]2c2ccccc2)C(=O)N([C@H](CC(=O)N2CCC(N3CCCCC3)CC2)C(=O)NCc2cccc(C(F)(F)F)c2)[C@@H]1/C=C/c1ccccc1 : 0

*Q* For Cc1ccc(S(=O)(=O)n2cc(-c3nnnn3-c3ccc(Cl)cc3)c(=O)c3ccccc32)cc1 , what call appears in the results of this test?
*A* 0

*Q* For COc1cc(OC)cc(-c2cncn2-c2ccc(-c3nc4cc(OC)c(OC)c(OC)c4s3)cc2)c1 , what call appears in the results of this test?
*A* 0

====

- Tested on: A549 NSCLC
- ASSAY_DETAILS: NCI tumour cell line growth inhibition, 48 h; in the data active means GI50 below about 0.43 µM; inactive means the rest
Give your call using only these classes: YES (active), NO (inactive)

CC(=O)Nc1sc2c(c1-c1nc3ccccc3s1)CNC2 : NO

Kindly review the next compound as well.
*Q* For COc1cc(NC(N)=NCCC(C)(C)c2ccc(C(F)(F)F)cc2)ncc1C#N , what call appears in the results of this test?
*A* NO

====

- Test system: SK-MEL-5 melanoma
- ASSAY_DETAILS: NCI tumour cell line growth inhibition, 48 h
MEASUREMENT_LABEL: TGI

# annotated cases, reported TGI shown
C/C(=N\Nc1nc2ccccc2o1)c1ccncn1 : > 81.6 µM
CC1(C)CC[C@]2(C(=O)O)CC[C@]3(C)C(=CC[C@@H]4[C@@]5(C)CC[C@H](OC6OC(CO)C(O)C(O)C6OC6OC(CO)C(O)C(O)C6O)C(C)(C)[C@@H]5CC[C@]43C)[C@@H]2C1 (stereo partly drawn) : 33.7 µM
Cc1ccc(C(=O)NC(C)(C)C)cc1N=NN(C)C : > 100 µM
COc1ccc(CNc2nc(NCc3ccc(OC)cc3)c3n[nH]c(C(C)C)c3n2)cc1 : 3.01 µM
Cc1nn(C)c2c1C(=O)N(C)CC(=O)N2C : > 100 µM
NC[C@@](O)(c1ccc(Cl)cc1)c1ccc(-c2cn[nH]c2)cc1 : > 100 µM

Consider the following items and state reported TGI for each.
1. COc1ccc(-c2coc3cc(OC)cc(O)c3c2=O)cc1
2. CC(O[Si](C)(C)C)C1C=CC(C)n2c(=O)n(-c3ccccc3)c(=O)n21 (stereo not drawn)
3. COc1cccc(-n2c(N)c(-c3nc4cc(C(F)(F)F)ccc4s3)c3ccc([N+](=O)[O-])cc3c2=O)c1
4. CN(C(=O)c1cccs1)C(=S)N1CCN(c2ccccc2)CC1

*A*
> 100 µM
> 100 µM
> 100 µM
> 100 µM

Consider the following items and state reported TGI for each.
1. CC[C@]12CCCN3CC[C@]4(C(=C(C(=O)OC)C1)Nc1ccccc14)[C@@H]32
2. CC1CCC23COC(=O)C2C(O)CCC3C1(C)CC(O)c1ccoc1 (stereo not drawn)
3. COc1ccc(-c2nocc2-c2cc(OC)c(OC)c(OC)c2)cc1
4. O=C1c2ccccc2C(=O)c2c1ccc1c2OCO1
5. Cc1nc2c(ncn2CCO)c(=O)[nH]1
6. COc1cc2c3c(c4c5ccccc5[nH]c4c2c(OC)c1OC)C(=O)N(CCN1CCCCC1)C3=O

*A*
1: 28.8 µM; 2: > 100 µM; 3: 4.45 µM; 4: > 100 µM; 5: > 100 µM; 6: 5.31 µM

Consider the following items and state reported TGI for each.
1. O=[N+]([O-])c1ccc(-c2cn(-c3ccc(Cl)cc3)cn2)cc1
2. Cc1n[nH]c(=O)n1N1C(=O)c2ccccc2C1=O

*A*
1. > 100 µM
2. > 100 µM

====

- Tested on: HCC-2998 colon
- ASSAY_DETAILS: NCI tumour cell line growth inhibition, 48 h
Please go through the items and note down their TGI.

# annotated cases, reported TGI shown
COc1cc(OC)nc(Nc2c(C#N)c3nc4ccccc4n3c3ccccc23)n1 : > 100 µM
CCOP(=O)(OCC)/C(C#N)=C/c1c(C)[nH]c2ccccc12 : > 100 µM
CCC/C(=N\NC(=O)c1cc2ccccc2cc1O)C(CC)C(=O)CCC(=O)N(Cc1ccccc1)Cc1ccccc1 (centres undefined) : > 100 µM

*Q* Give the measured TGI of O=C(/C=C/c1cccnc1)c1ccccc1O .
*A* 30 µM

====

- System: SK-MEL-2 melanoma
- ASSAY_DETAILS: NCI tumour cell line growth inhibition, 48 h
Please go through the items and note down their TGI.
Give bare numbers, in µM.

# annotated cases, reported TGI shown
CCCN1CCN(c2ccc3nc(-c4ccc5nc(-c6ccc(OCC)c(OCC)c6)[nH]c5c4)[nH]c3c2)CC1 : 2.01
C=C1N(C)c2ccc(Cl)cc2C1(C)C : 42.8
COc1cc2c3c(n(CCCCl)c(=O)c2cc1OC)-c1ccc(C#N)cc1C3=O : 24.5

Consider the following items and state reported TGI for each.
1. NC[C@@](O)(c1ccc(Cl)cc1)c1ccc(-c2cn[nH]c2)cc1
2. COc1cc(OC)nc(Nc2c(C#N)c3nc4ccccc4n3c3ccccc23)n1
3. CC(C)=CCC[C@H](C)[C@H]1CC[C@@H](C)c2cc(O)c(C)cc21
4. Nc1nc2c(c3cnccc13)C(c1cccc(Cl)c1)Cc1cnccc1-2 (stereo not drawn)
5. CC1Cc2cc(O)ccc2C2[C@@H]1C1CC[C@H](O)[C@@]1(C)C[C@@H]2O[N+](=O)[O-] (stereo partly drawn)
6. CCCCP(CCCC)(CCCC)=C(C(=O)OC)C(C(=O)OC)=C1SC(C(=O)OC)=C(C(=O)OC)S1

*A*
4.5
71.1
32.4
5.25
55.3
63.1
